The measured values listed here are drawn from patent US20090291081A1.

Target: T1, human IL-1α (human, UniProt P01583 113-271)
T1 construct: also called IL-1alpha; hIL-1α
T1 sequence (looked up): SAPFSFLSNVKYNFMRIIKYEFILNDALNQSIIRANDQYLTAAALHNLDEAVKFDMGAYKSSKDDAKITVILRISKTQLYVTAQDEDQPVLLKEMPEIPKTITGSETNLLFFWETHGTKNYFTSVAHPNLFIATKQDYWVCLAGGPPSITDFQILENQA
Test: Table 62 IC50; RBA presumed
Metric Name: pIC50
Reminder that pIC50 is minus the log10 of a molar concentration.

Example entries and their recorded answers appear below.
INSERT INTO assay_data (binder, metric_name, reported_value) VALUES
  ('ABT1-95-83 (other, VK dAb) VL: DIQMTQSPSSLSASVGDRVTITCRASQPIVRNLRWYQQKPGKAPKLLIYSSSYLEPGVPPRFSGSGSGTDFTLTISSLQPEDFATYHCQQGYRWPVTFGQGTKVEIKR', 'pIC50', 9.70),
  ('ABT1-141-50 (other, VK dAb) VL: DIQMTQSPSSLSASVGDRVTITCRASQWIQKQLAWYQQKPGKTPKLLIYSSSYLQSGVPSRFSGSGSGTDFTLTISSLQPEDFATYYCQQHLRVPMTFGQGTNVEIKR', 'pIC50', 8.00),
  ('ABT1-6 (other, VH dAb) VH: EVQLLESGGGLVQPGGSLRLSCAASGFTFGAYDMQWVRQAPGKGLEWVSSINKSGALTSYADSVKGRFTISRDNSKNTLYLQMNSLRAEDTAVYYCAKGWASFDYWGQGTLVTVSS', 'pIC50', 5.52);

// next entry
// sample ABT1-141-10 (other, VK dAb) VL: DIQMTQSPSSLSASVGDRVTITCRASQWIQKQLAWYQQKPGKAPKLLIYSSSYLQSGVPSRFSGSGSGTDFTLTISSLQPEDFATYYCQQSLRVPFTFGQGTKVEIKR , its pIC50 was 7.52
